Origin of the recorded values: paper PMC7541222

Molecular target: T1, FGF21 (Homo sapiens (assumed), UniProt Q9NSA1)
T1 construct: FGF21, unrelated antigen used as negative control
T1 sequence (Q9NSA1 29-209): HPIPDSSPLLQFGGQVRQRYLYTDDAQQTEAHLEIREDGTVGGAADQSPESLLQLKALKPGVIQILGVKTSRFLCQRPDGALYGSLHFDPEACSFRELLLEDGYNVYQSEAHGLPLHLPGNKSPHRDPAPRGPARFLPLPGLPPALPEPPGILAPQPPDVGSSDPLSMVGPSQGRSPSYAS
Test: ELISA; wells of 96-well plates coated with EGFR protein fragment or unrelated antigens; purified sdAbs added; protein A-HRP, TMB, absorbance at 450 nm
Conditions: both partners purified
PROPERTY MEASURED: binding result

INSERT INTO measurements (binder, property_measured, observed_value) VALUES
  ('anti-EGFR single-domain antibody aEG4D9 (purified) (VHH, fully human VH domain on the V3-23/D47 framework with diversified CDR1-3; Fully human VH-only single-domain antibody (about 15 kDa), selected from the Source BioScience human domain antibody library; subcloned NcoI/NotI into pET22b(+); also called anti-EGFR sdAb; source: E. coli BL21 (DE3), pET22b(+), purified (Ni-NTA)) VHH: QVQLLESGGGLVQPGGSLRLSCAASGDMLSPDNMTWVRQAPGKGLEWVSTIHKTDGSTYYADSVKGRFTISRDNSKNTLYLQMNSLRAEDTAVYYCAGLRSRGLSSKYLEYWGQGTLVTVSS', 'binding result', 'no binding'),
  ('anti-EGFR single-domain antibody aEG2C7 (purified) (VHH, fully human VH domain on the V3-23/D47 framework with diversified CDR1-3; Fully human VH-only single-domain antibody (about 15 kDa), selected from the Source BioScience human domain antibody library; subcloned NcoI/NotI into pET22b(+); also called anti-EGFR sdAb; source: E. coli BL21 (DE3), pET22b(+), purified (Ni-NTA)) VHH: QVQLLESGGGLVQPGGSLRLSCAASGFTFNNEIMAWVRQAPGKGLEWVSSIAANNGSTYYADSVKGRFTISRDNSKNTLYLQMNSLRAEDTAVYYCARYAAEPHTYSMGNKSLRYWGQGTLVTVSS', 'binding result', 'no binding'),
  ('anti-EGFR single-domain antibody aEG2E12 (purified) (VHH, fully human VH domain on the V3-23/D47 framework with diversified CDR1-3; Fully human VH-only single-domain antibody (about 15 kDa), selected from the Source BioScience human domain antibody library; subcloned NcoI/NotI into pET22b(+); also called anti-EGFR sdAb; source: E. coli BL21 (DE3), pET22b(+), purified (Ni-NTA)) VHH: QVQLLESGGGLVQPGGSLRLSCAASGYSSNNEFMAWVRQAPGKGLEWVSAISTRNGSTYYADSVKGRFTISRDNSKNTLYLQMNSLRAEDTAVYYCAGVSYRRPQQLKYWGQGTLVTVSS', 'binding result', 'no binding');
